# Experiment Notes: Aqueous solubility at pH 2.0
# Format: physicochemical
Metric Name: solubility

{"Structure Smiles String": "Cc1ccc(Oc2ccc(N(C[C@@H](C(=O)NO)N3CCOCC3)S(C)(=O)=O)cc2)cc1", "Metric Name": "solubility", "Obs Value": "> 0.07 mg/mL"}
{"Structure Smiles String": "CS(=O)(=O)N(C[C@@H](C(=O)NO)N1CCOCC1)c1ccc(Oc2ccc(C(F)(F)F)cc2)cc1", "Metric Name": "solubility", "Obs Value": "> 0.07 mg/mL"}

---

# Experiment Notes: Clearance in rat at 0.5 mg/kg, iv
# Type: ADME, organism-based
# Parameters: dose 0.5 mg/kg, route intravenous
# Test Context: in vivo
Entries and their clearance values follow.

{"Structure Smiles String": "Cc1ccc(Oc2ccc(N(C[C@H](Nc3cccc(F)c3)C(=O)NO)S(C)(=O)=O)cc2)cc1", "clearance": "66.9 mL/min/kg"}
{"Structure Smiles String": "Cc1ccc(Oc2ccc(N(C[C@H](NC(C)C)C(=O)NO)S(C)(=O)=O)cc2)cc1", "clearance": "35 mL/min/kg"}
{"Structure Smiles String": "Cc1ccc(Oc2ccc(N(C[C@@H](C(=O)NO)N3CCOCC3)S(C)(=O)=O)cc2)cc1", "clearance": "12.8 mL/min/kg"}
{"Structure Smiles String": "CS(=O)(=O)N(C[C@@H](C(=O)NO)N1CCOCC1)c1ccc(Oc2ccc(C(F)(F)F)cc2)cc1", "clearance": "65.4 mL/min/kg"}

---

Entries and their AUC values follow.
# Experiment Notes: AUC in rat at 0.5 mg/kg, iv
# Assay type: ADME, organism-based
# Design: dose 0.5 mg/kg, route intravenous
# Test Context: plasma

{"Structure Smiles String": "Cc1ccc(Oc2ccc(N(C[C@H](Nc3cccc(F)c3)C(=O)NO)S(C)(=O)=O)cc2)cc1", "AUC": "130 ng·h/mL"}
{"Structure Smiles String": "Cc1ccc(Oc2ccc(N(C[C@H](NC(C)C)C(=O)NO)S(C)(=O)=O)cc2)cc1", "AUC": "250 ng·h/mL"}
{"Structure Smiles String": "CS(=O)(=O)N(C[C@@H](C(=O)NO)N1CCOCC1)c1ccc(Oc2ccc(C(F)(F)F)cc2)cc1", "AUC": "130 ng·h/mL"}
